- Test system: OVCAR-8 ovarian
- test method notes: NCI tumour cell line growth inhibition, 48 h
Outcome label depends on TGI relative to 30 µM: at/above gives MET, below gives NOT MET.

* N#CC1=C(N)N(/N=C/c2ccco2)C(c2ccco2)C1(C#N)C#N (stereo not given) | MET
* Cc1ccc(S(=O)(=O)N(CCNC(=O)c2cccc(O)c2O)c2cc3c4c(c2)Oc2cccc5c2C4(C)c2c(cccc2O3)O5)cc1 | MET
* CCO/C(O)=c1/s/c(=C(\C#N)c2nc3ccccc3[nH]2)n(-c2ccccc2)c1=N | MET
* Brc1ccc(-c2cc3c(cc2C2SCCS2)OCO3)cc1 | MET
* C(=N\NC1=NCCN1)/c1ccc2ccccc2c1 | MET
* O=C(O)c1nn(-c2ccccc2)nc1-c1nn(-c2ccccc2)nc1C(=O)O | MET

hey, is TGI for this one >= 30 µM? Cc1cc(N(CCNc2ccnc3cc(Cl)ccc23)Cc2ccc3c(c2)OCO3)nc(N2CCCC2)n1
NOT MET

hey, is TGI for this one >= 30 µM? CCSc1nc(N/N=C/c2cccs2)c2cnn(CO)c2n1
NOT MET

hey, is TGI for this one >= 30 µM? O=c1c2c3c(sc2nc2n1NC=NN2)CCCC3
MET

hey, is TGI for this one >= 30 µM? CC(=O)Nc1ccc(/C=c2\sc3nnc(-c4cccnc4)n3c2=O)cc1
MET

* * *

Each record here notes measured TGI.
- Tested on: SF-539 CNS
- test method notes: NCI tumour cell line growth inhibition, 48 h

// solved cases for TGI follow
- COC(=O)c1ccccc1C1CN=NC12Cc1ccc3c(c1C2=O)CCC3 (configuration not stated): > 100 µM
- CN(C)c1ccc2[nH]c3c(C(N)=O)cc(=O)c(=O)c=3oc2c1: 4.43 µM
- Cc1ccc(NC(=O)C2C3CCC(O3)C2C(=O)O)cc1 (configuration not stated): > 100 µM
- CC1(C)C(=O)/C=C\C(=O)C(C)(C)C(=O)/C=C\C(=O)C(C)(C)C2=CC=C(O2)C(C)(C)C(=O)/C=C\C1=O: 17.7 µM
- COc1ccc([C@H]2CC3C(=O)N(c4ccc(OC)cc4)C(=O)C3c3[nH]c4ccccc4c32)cc1 (some centres not stated): 51.6 µM

Consider the compound COc1ccccc1C(=O)OCC1CCCN2CCCCC12 (configuration not stated) and give its measured TGI.
> 100 µM

Consider the compound COc1cccc(OC)c1NC(=O)C(=O)Nn1c(NNC(=O)c2ccncc2)nc2ccccc2c1=O and give its measured TGI.
> 100 µM

* * *

- Test system: U251 CNS
- test method notes: NCI tumour cell line growth inhibition, 48 h
Each record here notes measured TGI.

// solved cases for TGI follow
- CNC(=O)CNC(=O)N(C[C@@H]1CCCN1C(=O)[C@H](CC(C)C)NC(=O)OC(C)(C)C)C(C)C: > 100 µM
- COc1cc(C(=O)O[C@H](C(=O)NCCCCNC(=O)[C@@H](OC(=O)c2cc(OC)cc3c(C)cccc23)[C@]2(C)CO2)[C@]2(C)CO2)c2cccc(C)c2c1: 0.107 µM
- CC1(C)C(=O)/C=C\C(=O)C(C)(C)C(=O)/C=C\C(=O)C(C)(C)C2=CC=C(O2)C(C)(C)C(=O)/C=C\C1=O: 30.4 µM
- COc1ccc2c3/c(=C\c4ccc(N(C)C)cc4)c4ccccc4n3[n+](C)c2c1: > 100 µM

Note: attention shifts to another entry.
Param readout = TGI; param system = U251 CNS; param query = CCC(=O)Nc1nnc(Cc2ccc(OC)c(OC)c2)s1 ; response: value
> 100 µM
